# key: entry, value: remaining activity at 10 µM
Target of assay: PADI4 (Homo sapiens, UniProt Q9UM07)
Construct: His6; made in house
Sequence (Q9UM07 whole entry): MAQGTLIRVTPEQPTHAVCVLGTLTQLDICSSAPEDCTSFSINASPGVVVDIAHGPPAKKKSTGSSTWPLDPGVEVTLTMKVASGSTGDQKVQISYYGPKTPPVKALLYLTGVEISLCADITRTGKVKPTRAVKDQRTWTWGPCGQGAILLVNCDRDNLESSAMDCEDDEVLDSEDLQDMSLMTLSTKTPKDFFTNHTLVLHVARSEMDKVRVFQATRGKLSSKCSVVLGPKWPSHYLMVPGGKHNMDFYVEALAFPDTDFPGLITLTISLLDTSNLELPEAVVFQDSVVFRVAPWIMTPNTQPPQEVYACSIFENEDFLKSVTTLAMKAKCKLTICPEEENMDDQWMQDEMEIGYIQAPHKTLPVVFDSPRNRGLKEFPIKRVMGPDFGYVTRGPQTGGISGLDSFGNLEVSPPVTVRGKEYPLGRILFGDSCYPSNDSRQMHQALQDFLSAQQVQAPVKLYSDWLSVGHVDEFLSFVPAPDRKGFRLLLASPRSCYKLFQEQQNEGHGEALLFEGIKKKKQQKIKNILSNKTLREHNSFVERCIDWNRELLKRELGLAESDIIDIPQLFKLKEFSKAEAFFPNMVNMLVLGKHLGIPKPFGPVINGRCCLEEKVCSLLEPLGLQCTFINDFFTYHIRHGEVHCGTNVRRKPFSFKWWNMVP
Test description: COLDER inhibition assay, BAEE substrate, with or without 1 h preincubation
Format: biochemical
Settings: peptide 10 µM, T=0; read-out: PADI4 activity normalised to 0.1% DMSO
Where a SMILES comes first, the peptide text is derived from it. Bridges are numbered along the chain shown (N, C = ends). [ ]: non-standard residue; d: D form. Orn(fluoroacetimidoyl) = N=C(CF)NCCC[C@H](N)C(=O)O
Response body: numeric value in %, unit text excluded.

# get_value(readout='remaining activity at 10 µM', item= N=C(N)NCCC[C@@H]1NC(=O)[C@H](CCCCN)NC(=O)[C@H](CC(N)=O)NC(=O)[C@H](Cc2ccccc2)NC(=O)[C@H](CC(=O)O)NC(=O)[C@H](Cc2c[nH]c3ccccc23)NC(=O)[C@H](CC(N)=O)NC(=O)[C@H](CCCNC(=N)CF)NC(=O)[C@H](Cc2ccc(O)cc2)NC(=O)[C@H](Cc2c[nH]c3ccccc23)NC(=O)[C@@H](Cc2ccc(O)cc2)NC(=O)CSC[C@@H](C(=O)NCC(N)=O)NC1=O [cP4_10, yWY(2)NWDFNKRCG] ({CH2CO}-[dY]WY[Orn(fluoroacetimidoyl)]NWDFNKRCG-NH2; thioether N-12) )
19.7

More entries:
Item under review: N=C(N)NCCC[C@@H]1NC(=O)[C@H](Cc2ccc(O)cc2)NC(=O)[C@H](Cc2c[nH]cn2)NC(=O)[C@H](CCCNC(=N)CF)NC(=O)[C@H](CC(=O)O)NC(=O)[C@H](CCCNC(=N)N)NC(=O)[C@@H](Cc2ccc(O)cc2)NC(=O)CSC[C@@H](C(=O)NCC(N)=O)NC(=O)[C@H](Cc2ccc(O)cc2)NC(=O)[C@H](CCCCN)NC(=O)[C@@H]2CCCN2C(=O)[C@H](Cc2c[nH]cn2)NC1=O [PADI4_3_H4(2), yRD(2)HYRHPKYCG] ({CH2CO}-[dY]RD[Orn(fluoroacetimidoyl)]HYRHPKYCG-NH2; thioether N-12) . Reported remaining activity at 10 µM?
18.1

Try the compound N=C(N)NCCC[C@@H]1NC(=O)[C@H](CCCNC(=N)CF)NC(=O)[C@H](CC(=O)O)NC(=O)[C@H](Cc2ccc(O)cc2)NC(=O)[C@H](CCCCN)NC(=O)[C@H](CO)NC(=O)[C@@H](Cc2ccc(O)cc2)NC(=O)CSC[C@@H](C(=O)NCC(N)=O)NC(=O)[C@H](CC(=O)O)NC(=O)[C@H](CCCNC(=N)N)NC(=O)[C@@H]2CCCN2C(=O)[C@H](CO)NC1=O [cP4_4, ySKYD(2)RSPRDCG] ({CH2CO}-[dY]SKYD[Orn(fluoroacetimidoyl)]RSPRDCG-NH2; thioether N-12)
20.8
